Each recorded value in this set is attributed to patent US10144761B2.

Test: Stability study (three storage/solution conditions, by RP-HPLC)
Type: physicochemical
Set-up: key: “+” meaning stable; “−” meaning quickly degradable
Conditions: room temperature (20° C.) under inert dry gas; determined by RP-HPLC
ENDPOINT_NAME: Stability, Room Temp Dry

CC(C)C[C@H](NC(=O)[C@H](Cc1ccccc1)NC(=O)c1cnccn1)B(O)O [HL01-0, reference compound] = −
CC(C)C[C@H](NC(=O)CNC(=O)c1cc(Cl)ccc1Cl)B(O)O = +
CC(C)C[C@H](NC(=O)CNC(=O)c1cc(Cl)ccc1Cl)[B-]12OC(=O)C[N+]1(C)CC(=O)O2 (stereo partly shown) = +
CC(C)C[C@H](NC(=O)[C@H](Cc1ccccc1)NC(=O)c1cnccn1)[B-]12OC(=O)C[N+]1(C)CC(=O)O2 (stereo partly shown) = +
